Assay: yeast display, Sf9 membrane polyspecificity reagent, FACS + sequencing; frameworks hold sequencing errors
metric: polyreactivity (PSR sort gate)

* HVQLVESGGGIVQAGGSLRLSCAASGSTYVTNDMGSYRQAPGKERELVAAIYSGTSTNYADSVKGRFTISRDNAKNTVYLQMNSLKPEDTAVYYCAADSLKRYDYWGQGTQVSVSS | low polyreactivity
* QVQLVESVGGLVQAGGSLRLSCAASGFTFARYAMGWYIQAPGKERELVAAISISGGRTYYADSVKGRFTISRDNAKNTVYLQMNSLKPEDTAVYYCNKGHVPSYDYNYWGQGTQVTVSS | high polyreactivity
* QVQLVESGGGLVQAGGSLRLSCAASGFTFAPYAMGWYRQAPGKERELVAAISSNGGSTYYADSVKGRFTISRDNAKNTVYLQMNSLKPGDTAVYYCAAPVRQSSYNRYDSWGQGTQVTVSS | high polyreactivity
* QVQLVESGGGLVQAGGSLRLSCAASGRIFNWYAMGWYRKAPGKERELVAAISTDGSTYYADSVKGRFTISRDNAKNTVFLQMNSLKPEDTAVYYCAAVPGYTHLWGGPFDYWGQGTQVTVSS | low polyreactivity
* QVQLVESGGGLVQAGGSLRLSCAASGLTFAYYAMGWYRQAPGKERELVAAISWNGGRTYYADSVKGRFTISRDNAKNSVYLQMNSLKPEDSAVYYCAAQVTSSFYWGQGTQVTVSS | high polyreactivity

Recorded values, source the nanobody polyreactivity screen of Harvey et al. (2022).
